Let's look at some molecules and their measured EC50.
- system tested: Zinc finger protein mex-5 (Caenorhabditis elegans, UniProt Q9XUB2)
- Sequence (Q9XUB2 whole entry): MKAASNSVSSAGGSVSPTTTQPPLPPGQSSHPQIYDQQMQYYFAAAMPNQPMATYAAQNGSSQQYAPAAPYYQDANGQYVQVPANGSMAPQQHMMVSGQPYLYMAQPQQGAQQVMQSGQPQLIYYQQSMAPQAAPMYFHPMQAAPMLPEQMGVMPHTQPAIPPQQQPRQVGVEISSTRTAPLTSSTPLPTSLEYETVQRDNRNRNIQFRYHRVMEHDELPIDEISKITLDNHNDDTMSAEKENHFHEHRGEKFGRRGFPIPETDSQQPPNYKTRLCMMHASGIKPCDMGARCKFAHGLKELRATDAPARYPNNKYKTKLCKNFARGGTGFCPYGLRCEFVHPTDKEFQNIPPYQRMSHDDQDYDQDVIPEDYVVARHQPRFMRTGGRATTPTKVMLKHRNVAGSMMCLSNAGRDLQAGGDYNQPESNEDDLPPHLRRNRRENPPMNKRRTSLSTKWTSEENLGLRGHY
- assay notes: MEX-5/TCR-2 RNA interaction inhibitors, dose response, biochemical, C. elegans, fluorescence polarization (AID 1960)
Active and inactive are the calls of the source. Cut-off read from the data, not from the text of the source: actives have a measured EC50 and inactives only a lower limit.
metric name: EC50

COC(=O)c1ccc(-n2c(C)cc(/C=N/n3cnnc3)c2C)cc1 :: > 300 µM (not active)
C1=C(c2ccccc2)Nc2nnnn2C1c1cccs1 (stereo unspecified) :: > 300 µM (not active)
CCc1ccc(S(=O)(=O)Nc2cc(SCC(=O)O)c(O)c3ccccc23)cc1 :: 11.5 µM (active)
COC(=O)CCCC1=CC2=CC(=O)C(C)(O)C(=O)C2=CO1 (stereo unspecified) :: 29 µM (active)
CCN(CC)C(=O)c1ccc2c(c1)C1C=CCC1C(C(=O)O)N2 (stereo unspecified) :: 6.32 µM (active)
CC1=NN(C(N)=S)C(=O)C1N=Nc1c(Cl)cc([N+](=O)[O-])cc1Cl (stereo unspecified) :: 85.9 µM (active)
